- Test system: CCRF-CEM leukemia
- method-notes: NCI-60 one-dose screen, 48 h
- condition-description: 10 µM
This is part of a sample that, as a whole, favours compounds with a hit. Of some 83,000 tested, about 20% had one in any assay. Activity calls are given as the source filed them. The calls were made as follows: active = growth percent below 10; inactive = the rest.
Your reply should match one of these outcome classes. active, inactive

{"columns": ["compound", "class-assignment"],
 "data": [
  ["O=C(C(=O)N1CCOCC1)c1ccc(O[C@H]2O[C@H](CO)[C@@H](O)[C@H](O)[C@@H]2O)cc1", "inactive"],
  ["COc1cc(-c2nn(-c3ccc(NC(=O)c4ccc(Cl)c(C(F)(F)F)c4)cc3)cc2-c2ccncc2)ccc1Cl", "active"]
]}

Query: Record request — test call for "CC[C@H](Nc1ncnc2nc[nH]c12)c1nc2cccc(NCc3ccc(C(=O)NO)o3)c2c(=O)n1-c1ccccc1"
Result: inactive

Query: Try this compound next: "C#CCCCCCCC[C@@H]1OC(=O)[C@H]([C@@H](C)CC)NC(=O)[C@H]([C@@H](C)CC)NC(=O)CC(=O)[C@@H]1C"
Result: inactive

Query: Same lookup for NC(CSC(c1ccccc1)(c1ccccc1)c1ccccc1)C(=O)NCC(=O)O (configuration not stated) , please.
Result: inactive

Query: Subsequent entry: "CC(=O)c1nn(-c2ccc(C)cc2)cc1C(=O)c1cc2c(ccc3ccccc32)oc1=O"
Result: inactive

Query: How about "O=C(O)c1ccc(-c2nn(-c3ccc(C(=O)O)cc3)cc2CNc2ccc(Br)cc2)cc1" ?
Result: inactive

These measurements were taken from PubChem BioAssay (NCI).
